Value source: ChEMBL document CHEMBL1155014

# System: Staphylococcus aureus
# assay-procedure: Antibacterial activity against Staphylococcus aureus NCTC 6571 at 4 mg/ml by hole plate method
# Type: functional
Calls of active or inactive are those of the source. The rule behind the calls is not given here.
endpoint: Activity

1. CC(C)(C(N)=O)C(O)/C=C/c1ccccc1 (centres undefined) = inactive
2. CC(C)(C(=O)NCc1ccccc1)C(O)c1ccccc1 (centres undefined) = inactive
3. C#CCNC(=O)C(C)(C)C(O)c1ccccc1 (centres undefined) = inactive
4. C=CCNC(=O)C(C)(C)C(O)Cc1ccccc1 (centres undefined) = inactive
5. C=CCNC(=O)C(C)(C)C1(O)CCCCC1 = inactive
6. CCCNC(=O)C(C)(C)C(O)c1ccccc1 (centres undefined) = inactive
7. CC(C)(C(=O)NCc1ccc(Br)cc1)C(O)c1ccccc1 (centres undefined) = inactive
8. C=CCNC(=O)C(C)(C)C(O)c1ccccc1 (racemic) = inactive
9. C=CCNC(=O)C(C)(C)C(O)CCCCCCC (centres undefined) = inactive

====

# Test system: Escherichia coli
# assay-procedure: Antibacterial activity against Escherichia coli X580 at 4 mg/ml by hole plate method relative to cephalosporin C
# Assay type: functional
endpoint: Activity (millimeter/mg/ml)

1) C=CCNC(=O)C(C)(C)C(O)c1ccccc1/C=C/c1ccccc1 (stereo unspecified) = 0.01
2) C=CCNC(=O)C(C)(C)C(O)CCCCCCC (stereo unspecified) = 0.01
3) C#CCNC(=O)C(C)(C)C(O)c1ccccc1 (stereo unspecified) = 0.003
4) C/C(=C/C=C/c1ccccc1)C(O)C(C)(C)C(N)=O (stereo unspecified) = 0.03
5) CC(C)(C(=O)NCc1ccccc1)C(O)c1ccccc1 (stereo unspecified) = 0.005
6) C=CCNC(=O)C(C)(C)C(O)CCCCc1ccccc1 (racemic) = 0.01
